The measured values listed here are drawn from patent US20250250357A1.

Reported OD450 values for a set of binders
target: T1, human MSLN-R2-his protein (human, UniProt Q13421 391-486); assay: ELISA on coated antigen, antibody 0.002 nM
T1 construct: it is put last here; also called human MSLN-R2 protein; hMSLN-R2-his; not shown: His tag
T1 sequence (Q13421 other isoform, or with tags, fused parts or gaps): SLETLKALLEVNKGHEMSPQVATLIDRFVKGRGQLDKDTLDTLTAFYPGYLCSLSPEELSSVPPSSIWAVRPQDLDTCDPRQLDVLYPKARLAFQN

Past entries and their recorded results:
[in] Look up and report measured OD450 for this entry: S009-F7.12.13 (antibody, human IgG1, kappa, V domains shown, Human-murine chimeric antibody, human IgG1 heavy and kappa light constant regions) VH: EVQLQQSGPELVKPGASVKIPCKASGYTFTDYNMDWVKQSHGKGLEWIGDINPNTDDTIYNQKFNGKATLTVDKSSSTAYMELRSLTSEDTAVYYCSRRLIGTGYFDVWGTGTTVTVSS VL: QIVLTQSPAIMSASPGEKVTLTCSASSSVISTYLCWYRQKPGSSPELWIYSTSNLASGVPARFSGSGSGTSYSLTISSMEAEDAASYFCHQWSNYPYTFGGGTKLGMKR
[out] 0.05 OD

[in] Supply recorded OD450 for S009-F7.18.10 (antibody, human IgG1, kappa, V domains shown, Human-murine chimeric antibody, human IgG1 heavy and kappa light constant regions) VH: QVQLQQSGAELVRPGTSVKVSCKASGYAFTNYLIEWVKQRPGQGLEWIGVINPGSGGTKYNEKFKGKATLTADKSSSTAYMQLSSLTSEDSAVYFCASDYDYDPFAYWGQGTLVTVSA VL: DIVMTQSHKFMSTSVGDRVSITCKASQDVSTAVAWYQRKPGQSPKLLIYWASTRHTGVPDRFTGSGSGTDYTLTISYMQAEDLALYYCQQHYSTPYTFGGGTKLEIKR here.
[out] 0.05 OD

The record that follows has no OD450 shown yet.
[in] Give OD450 for the following binder: S009-F7.23.19 (antibody, human IgG1, kappa, V domains shown, Human-murine chimeric antibody, human IgG1 heavy and kappa light constant regions) VH: EVKLVESGGGLVQPGGSLSLSCAASGFTFTDYYMSWVRQPPGKALEWLGFIRSKANAYTTEYSASVKGRFTISRDNSQSILYLQMNDLRAEDSATYYCARYYYYGSGYVWYFDVWGTGTTVTVSS VL: DIVMTQSQKFMSTSVGDRVSVTCKASQSVGTNVAWYQQKPGQFPKALIYSASYRYSGVPDRFTGSGSGTDFTLTIINVQSEDLAEYFCQQYNSYPLTFGAGTKLELKR
[out] 0.05 OD
